Biological target: T1, Gal80 (UniProt P04387 1-435, limits assumed, labelled with Cy3 or Cy5 in the peptide array screen)
T1 sequence (looked up): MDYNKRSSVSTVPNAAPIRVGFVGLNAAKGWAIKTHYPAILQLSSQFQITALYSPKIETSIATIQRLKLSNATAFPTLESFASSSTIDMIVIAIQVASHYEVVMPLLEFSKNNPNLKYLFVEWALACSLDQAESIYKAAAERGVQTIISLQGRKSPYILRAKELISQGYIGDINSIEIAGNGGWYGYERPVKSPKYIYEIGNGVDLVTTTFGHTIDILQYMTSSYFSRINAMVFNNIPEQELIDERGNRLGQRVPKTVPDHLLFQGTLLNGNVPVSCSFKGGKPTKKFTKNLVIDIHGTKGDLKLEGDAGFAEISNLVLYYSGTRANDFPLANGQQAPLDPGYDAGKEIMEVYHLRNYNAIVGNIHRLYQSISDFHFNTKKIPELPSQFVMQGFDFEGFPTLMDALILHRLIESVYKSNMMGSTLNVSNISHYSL
Assay: SPR, gal80 immobilised on the chip, Kd from on and off rates
Catalogue of pKd readings, one per entry.
# pKd = -log10(concentration in molar units)

Request: Please look up its pKd: EGEWTEGKLSLRGSC (chain 1 pos 15: Cys thiol joined via SMCC maleimide to an amine-modified cytosine of the double-stranded DNA linker. The DNA cannot be carried by the letters., also called BP2 complexed by itself to the double-stranded DNA linker) [BP2 on dsDNA]
Result: 6.01

Now turn to the next binder.
Request: Please look up its pKd: GTEKGTSGWLKTGSC (chain 1 pos 15: Cys thiol joined via SMCC maleimide to an amine-modified cytosine of the double-stranded DNA linker. The DNA cannot be carried by the letters., also called BP1 complexed by itself to the double-stranded DNA linker) [BP1 on dsDNA]
Result: 6.32

All figures here come from patent US20110143953A1.
